- Assayed target: T1, PD1-Fc (canine, UniProt A0A090BAM7 25-168)
- T1 construct: also called Only Ag (PD1 Fc)
- T1 sequence (A0A090BAM7 entry or part of it limits assumed): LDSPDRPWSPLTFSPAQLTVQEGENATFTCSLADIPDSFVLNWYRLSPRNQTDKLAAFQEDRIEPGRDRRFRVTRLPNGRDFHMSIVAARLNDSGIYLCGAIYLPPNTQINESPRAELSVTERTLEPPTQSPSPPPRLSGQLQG
- Assay summary: Octet BLI competition, competitor PD-L1 Fc on AHC sensor, PD1 Fc 50 nM preincubated with supernatant 1/2
The following binders are listed with their measured Response (nm) values.
Form entry: value (nm) — number only.

Look over these answered cases.
Memo: PD-1 A-M23 (antibody, mouse IgG1, V domains shown, Mouse IgG1 kappa, hybridoma supernatant; also called 18A08) VH: EVRLQQSGAELVKPGASVKLSCTASGFNIKDTYLHWLKERPEQGLEWIGRIDPAIGNTRYDPKFQVKATITADTSSNTAYLQLSSLTSEDSAVYYCARGFYGMDYWGQGTSVTVSS VL: QIVLTQSPAIMSASPGEKVTMTCSASSSVSYMFWYQQKPGSSPRLWIYDTSNLVSGVPARFSGSRSGTSYSLTISSMEAEDAATYYCQQYSGYPYTFGGGTKLEIK , reported Response (nm): 0

Memo: PD-1 A-M3 (antibody, mouse IgG1, V domains shown, Mouse IgG1 kappa, hybridoma supernatant; also called 4G01) VH: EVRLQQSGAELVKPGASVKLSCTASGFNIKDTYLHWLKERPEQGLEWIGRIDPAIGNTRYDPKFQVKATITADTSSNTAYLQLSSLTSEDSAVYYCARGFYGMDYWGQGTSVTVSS VL: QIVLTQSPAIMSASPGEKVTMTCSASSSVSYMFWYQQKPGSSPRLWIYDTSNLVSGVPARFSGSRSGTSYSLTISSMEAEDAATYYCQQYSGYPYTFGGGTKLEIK , reported Response (nm): -0.002

Could you now look at the following binder, please?
Memo: PD-1 A-M10 (antibody, mouse IgG1, V domains shown, Mouse IgG1 kappa, hybridoma supernatant; also called 8H01) VH: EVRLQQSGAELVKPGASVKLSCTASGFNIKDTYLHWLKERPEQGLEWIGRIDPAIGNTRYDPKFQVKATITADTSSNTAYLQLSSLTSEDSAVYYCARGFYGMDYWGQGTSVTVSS VL: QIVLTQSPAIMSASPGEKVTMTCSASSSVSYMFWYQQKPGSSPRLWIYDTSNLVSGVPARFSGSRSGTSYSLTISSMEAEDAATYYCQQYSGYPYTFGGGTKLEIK , reported Response (nm): 0.006

Data origin: patent US20220324977A1
